- systemName: furin, P09958;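 further: purified furin at 1:10 enzyme:substrate in 50 mM HEPES pH 7.5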
- Sequence (P09958 whole entry): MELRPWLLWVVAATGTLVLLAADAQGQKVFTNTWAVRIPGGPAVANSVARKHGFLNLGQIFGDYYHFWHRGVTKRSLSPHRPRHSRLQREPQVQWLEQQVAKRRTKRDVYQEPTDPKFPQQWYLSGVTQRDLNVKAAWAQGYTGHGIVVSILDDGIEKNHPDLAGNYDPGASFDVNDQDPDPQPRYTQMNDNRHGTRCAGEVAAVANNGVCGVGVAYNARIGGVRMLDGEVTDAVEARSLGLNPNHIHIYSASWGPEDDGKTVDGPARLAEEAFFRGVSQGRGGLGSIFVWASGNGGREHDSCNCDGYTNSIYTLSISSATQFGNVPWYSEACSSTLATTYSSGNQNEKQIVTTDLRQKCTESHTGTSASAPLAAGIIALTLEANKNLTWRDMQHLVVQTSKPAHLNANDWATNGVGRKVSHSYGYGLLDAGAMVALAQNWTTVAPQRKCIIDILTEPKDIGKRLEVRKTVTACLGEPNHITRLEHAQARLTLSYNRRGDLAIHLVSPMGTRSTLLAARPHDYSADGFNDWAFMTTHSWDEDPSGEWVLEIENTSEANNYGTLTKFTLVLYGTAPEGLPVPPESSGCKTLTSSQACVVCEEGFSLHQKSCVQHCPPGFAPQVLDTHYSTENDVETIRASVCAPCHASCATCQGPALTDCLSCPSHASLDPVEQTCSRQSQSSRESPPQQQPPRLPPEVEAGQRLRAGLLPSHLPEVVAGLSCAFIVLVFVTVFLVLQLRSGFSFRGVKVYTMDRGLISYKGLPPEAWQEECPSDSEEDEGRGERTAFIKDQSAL
- measurementDescription: furin cleavage Z-score vs untreated control; higher = more cleavage, active = 3.5 or more, inactive = 1 or less, 8 variable residues between constant flanks
- experimentalContext: 7.5 min
The list shows a part of the results. The true hit rate is not given.
Quick rule for you: furin cleavage Z-score at -0.3 or higher means Criterion met, lower means Criterion not met.

>>> classlabel("CARGPRSSSAAGNASASA [FS-1712]")
"Criterion met"
>>> classlabel("CARFFRYLHTAGNASASA [FS-2920]")
"Criterion not met"
>>> classlabel("CAAEEDEREIAGNASASA [HC1291]")
"Criterion met"
>>> classlabel("CAITYSTYGKAGNASASA [HC806]")
"Criterion met"
>>> classlabel("CAGKSRLKKSAGNASASA [FS-429]")
"Criterion met"
>>> classlabel("CARRHRATRKAGNASASA [FS-1266]")
"Criterion met"
>>> classlabel("CARLRRLLWIAGNASASA [FS-2044]")
"Criterion not met"
>>> classlabel("CAGVARVRKSAGNASASA [FS-169]")
"Criterion met"
>>> classlabel("CAGPARPWKSAGNASASA [FS-127]")
"Criterion met"
>>> classlabel("CAGVARFYRSAGNASASA [FS-661]")
"Criterion met"
>>> classlabel("CARSHRSCRTAGNASASA [FS-1792]")
"Criterion met"
>>> classlabel("CALIFCHSKKAGNASASA [HC856]")
"Criterion not met"
>>> classlabel("CASSKRAEAPAGNASASA [FS-2852]")
"Criterion not met"
>>> classlabel("CATGDFDSVIAGNASASA [HC883]")
"Criterion met"
>>> classlabel("CARRHEKKRKAGNASASA [FS-1653]")
"Criterion not met"
>>> classlabel("CAMWNFISGIAGNASASA [HC1043]")
"Criterion not met"
>>> classlabel("CARKTRSTHTAGNASASA [FS-3226]")
"Criterion met"
>>> classlabel("CAGPADGMVSAGNASASA [HC667]")
"Criterion met"
>>> classlabel("CARLLRDADDAGNASASA [FS-2278]")
"Criterion not met"
>>> classlabel("CASARRGREIAGNASASA [HC662]")
"Criterion met"
>>> classlabel("CAEFTLLTRIAGNASASA [FS-988]")
"Criterion not met"
>>> classlabel("CAGVPCHRPSAGNASASA [HC2316]")
"Criterion met"
>>> classlabel("CARKTRARRAAGNASASA [FS-489]")
"Criterion met"
>>> classlabel("CASSKRNRRHAGNASASA [FS-1418]")
"Criterion met"
>>> classlabel("CARGPRSATHAGNASASA [FS-1894]")
"Criterion met"
>>> classlabel("CATTPCSGQWAGNASASA [HC1922]")
"Criterion met"
>>> classlabel("CAVVPCHRPSAGNASASA [HC2310]")
"Criterion met"
>>> classlabel("CARSHRMRRHAGNASASA [FS-1272]")
"Criterion met"
>>> classlabel("CARSHRDTATAGNASASA [FS-1791]")
"Criterion met"
>>> classlabel("CASVNRNKKSAGNASASA [FS-875]")
"Criterion not met"

Values were extracted from the supplement of paper PMC3545927.
